Data credit: patent US20050032873A1

Counter-ions that a name gives are not always drawn.
Test Readout: melting point

{"Molecule": "COc1cccc2c(CCCN(C3CCC3)C3COc4c(F)ccc(C(N)=O)c4C3)coc12 (stereo not drawn) (as salt: hydrochloride)", "Test Readout": "melting point", "Data Value": "131 to 140 °C (dec.)"}

IN: Supply recorded melting point for COc1ccc2[nH]cc(CCCN(CC3CC3)C3COc4c(F)ccc(C(N)=O)c4C3)c2c1 (stereo not drawn) (as salt: hydrochloride) here.
OUT: 148 to 154 °C (dec.)

IN: Supply recorded melting point for CCCN(CCCCc1coc2c(OC)cccc12)C1COc2c(F)ccc(C(N)=O)c2C1 (stereo not drawn) (as salt: hydrochloride) here.
OUT: 99 to 110 °C (dec.)

###

target: 5-HT1A receptor (Homo sapiens); assay: cAMP accumulation assay, 5-HT1A function; assay type: cell-based; details: in brackets after EC50 or IC50; read-out: 5-HT1A Function cAMP (Emax)
Test Readout: Emax (%)

{"Molecule": "CCCN(CCCCn1ccc2cc(F)ccc21)C1COc2c(F)ccc(C(N)=O)c2C1 (centres unmarked)", "Test Target": "5-HT1A receptor (Homo sapiens)", "Emax / %": 82}

[P] CCCN(CCCCc1c[nH]c2ccc(F)cc12)C1COc2cccc(OC)c2C1 (centres unmarked)
[Q] CCCN(C1COc2cccc(OC)c2C1)[C@H]1CC[C@H](c2c[nH]c3ccc(F)cc32)CC1 (relative stereo)
IN: Could you please tell me which of these two has the higher Emax: P or Q ? Output the label that corresponds to your choice.
OUT: P

###

biological target: cloned human 5-HT1A receptors (Homo sapiens, UniProt P08908); construct: expressed in transfected cells; test: 35S-GTPγS binding assay, 5-HT1A function; format: biochemical; conditions: antagonist potency, reversal of 8-OH-DPAT; read-out: 5-HT1A Function GTPγS IC50
Sequence (P08908 whole entry): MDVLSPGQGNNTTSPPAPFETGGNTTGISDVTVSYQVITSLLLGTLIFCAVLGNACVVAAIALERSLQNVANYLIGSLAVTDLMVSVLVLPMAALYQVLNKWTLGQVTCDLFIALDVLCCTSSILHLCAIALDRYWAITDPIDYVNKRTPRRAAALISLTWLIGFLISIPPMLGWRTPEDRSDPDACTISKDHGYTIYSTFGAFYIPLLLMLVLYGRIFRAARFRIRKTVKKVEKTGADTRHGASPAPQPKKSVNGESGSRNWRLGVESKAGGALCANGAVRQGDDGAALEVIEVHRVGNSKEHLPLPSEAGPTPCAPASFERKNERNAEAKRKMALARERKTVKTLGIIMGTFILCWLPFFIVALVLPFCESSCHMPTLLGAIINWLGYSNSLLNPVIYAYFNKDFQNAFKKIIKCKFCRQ
Test Readout: IC50 (nM)

Completed entries (count: 5):
{"Compound": "CCCN(CC1CCc2[nH]c3ccc(F)cc3c2C1)[C@H]1COc2c(F)ccc(C(N)=O)c2C1 (single isomer, unassigned; (-)) [Compound 177a]", "Test Target": "cloned human 5-HT1A receptors (Homo sapiens, UniProt P08908)", "Test Readout": "IC50", "Data Value": 2950}
{"Compound": "NC(=O)c1ccc(F)c2c1C[C@@H](NCC1CCc3c([nH]c4ccc(F)cc34)C1)CO2 (single isomer, unassigned; (+)) [Compound 179a]", "Test Target": "cloned human 5-HT1A receptors (Homo sapiens, UniProt P08908)", "Test Readout": "IC50", "Data Value": 9030}
{"Compound": "CNC(=O)c1ccc(F)c2c1CC(N(CCCc1c[nH]c3ccc(F)cc13)CC1CC1)CO2 (stereo not shown)", "Test Target": "cloned human 5-HT1A receptors (Homo sapiens, UniProt P08908)", "Test Readout": "IC50", "Data Value": 191}
{"Compound": "CCN(CCc1c[nH]c2ccc(F)cc12)C1COc2c(F)ccc(C(=O)NC)c2C1 (stereo not shown)", "Test Target": "cloned human 5-HT1A receptors (Homo sapiens, UniProt P08908)", "Test Readout": "IC50", "Data Value": 3580}
{"Compound": "CCCN(CCc1c[nH]c2ccc(F)cc12)C1COc2c(F)ccc(C(N)=O)c2C1 (stereo not shown)", "Test Target": "cloned human 5-HT1A receptors (Homo sapiens, UniProt P08908)", "Test Readout": "IC50", "Data Value": 2570}

[1] N#Cc1ccc2[nH]cc(CCCN(CC3CC3)[C@@H]3COc4c(F)ccc(C(N)=O)c4C3)c2c1 [Compound 98a]
[2] CCCN(C(C)CCc1c[nH]c2ccc(F)cc12)C1COc2c(F)ccc(C(N)=O)c2C1 (single isomer, unassigned) [Compound 12a]
IN: Could you please tell me which of these two has the higher IC50: 1 or 2 ? Output the label that corresponds to your choice.
OUT: 1
(1: 586 nM, 2: 323 nM)
